molecular target: cyclooxygenase-1 (Mus musculus); construct: endogenous in cells; host or cells: primary mouse peritoneal macrophages (unstimulated); assay: Cyclooxygenase-1 inhibition in mouse peritoneal macrophages (PGE2 ELISA); assay type: cell-based; details: 10 μM
Sequence (P22437 27-602): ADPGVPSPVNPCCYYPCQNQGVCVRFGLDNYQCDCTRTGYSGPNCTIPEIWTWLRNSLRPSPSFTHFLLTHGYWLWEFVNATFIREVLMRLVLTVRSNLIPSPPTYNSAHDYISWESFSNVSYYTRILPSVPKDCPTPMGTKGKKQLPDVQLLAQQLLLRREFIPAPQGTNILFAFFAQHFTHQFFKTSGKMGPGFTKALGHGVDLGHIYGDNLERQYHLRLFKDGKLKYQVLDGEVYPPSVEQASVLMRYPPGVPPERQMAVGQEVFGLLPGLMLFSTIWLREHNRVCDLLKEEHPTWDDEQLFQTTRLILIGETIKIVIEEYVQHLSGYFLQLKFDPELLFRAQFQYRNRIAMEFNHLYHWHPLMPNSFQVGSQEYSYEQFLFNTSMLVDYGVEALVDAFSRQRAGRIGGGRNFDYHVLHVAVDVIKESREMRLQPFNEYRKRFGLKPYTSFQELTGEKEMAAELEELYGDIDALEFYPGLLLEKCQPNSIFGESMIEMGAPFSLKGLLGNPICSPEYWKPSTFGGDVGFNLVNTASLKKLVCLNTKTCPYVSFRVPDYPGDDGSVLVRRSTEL
PROPERTY: Inhibitory effects of cyclooxygenase (COX): COX-1

CS(=O)(=O)c1ccc(-c2ccc(OCc3ccccc3)c(OCc3ccccc3)c2)cc1 ... 40.5 % inhibition
CS(=O)(=O)c1ccc(-c2ccc(OC3CCCC3)c(OC3CCCC3)c2)cc1 ... 40.2 % inhibition
CS(=O)(=O)c1ccc(-c2ccc(OC3CC3)c(OC3CC3)c2)cc1 ... 58.4 % inhibition

Ask: Reported Inhibitory effects of cyclooxygenase (COX): COX-1, compound COc1ccc(-c2ccc(S(C)(=O)=O)cc2)cc1OC : ____
Result: 50.5 % inhibition

Ask: And then CCCCOc1ccc(-c2ccc(S(C)(=O)=O)cc2)cc1OCCCC , what is it?
Result: 20.9 % inhibition

Ask: Likewise for CCCOc1ccc(-c2ccc(S(C)(=O)=O)cc2)cc1OCCC ?
Result: 10.1 % inhibition

Ask: Please give the result for CCCCOc1cc(-c2ccc(S(C)(=O)=O)cc2)ccc1OC(C)C too.
Result: 66.4 % inhibition

Ask: And the next one, CC(C)Oc1ccc(-c2ccc(S(C)(=O)=O)cc2)cc1OC(C)C ?
Result: 70.4 % inhibition

Ask: Same again, this time with CCOc1ccc(-c2ccc(S(C)(=O)=O)cc2)cc1OCC
Result: 70.5 % inhibition

---

Molecular target: cyclooxygenase-2 (Mus musculus, UniProt Q05769)
Construct: blended with 3% FBS-RPMI 1640 medium containing 10 μg/ml of LPS in each well; endogenous in cells; host or cells: primary mouse peritoneal macrophages, pretreated with 500 μM aspirin and induced with LPS
Sequence (Q05769 18-604): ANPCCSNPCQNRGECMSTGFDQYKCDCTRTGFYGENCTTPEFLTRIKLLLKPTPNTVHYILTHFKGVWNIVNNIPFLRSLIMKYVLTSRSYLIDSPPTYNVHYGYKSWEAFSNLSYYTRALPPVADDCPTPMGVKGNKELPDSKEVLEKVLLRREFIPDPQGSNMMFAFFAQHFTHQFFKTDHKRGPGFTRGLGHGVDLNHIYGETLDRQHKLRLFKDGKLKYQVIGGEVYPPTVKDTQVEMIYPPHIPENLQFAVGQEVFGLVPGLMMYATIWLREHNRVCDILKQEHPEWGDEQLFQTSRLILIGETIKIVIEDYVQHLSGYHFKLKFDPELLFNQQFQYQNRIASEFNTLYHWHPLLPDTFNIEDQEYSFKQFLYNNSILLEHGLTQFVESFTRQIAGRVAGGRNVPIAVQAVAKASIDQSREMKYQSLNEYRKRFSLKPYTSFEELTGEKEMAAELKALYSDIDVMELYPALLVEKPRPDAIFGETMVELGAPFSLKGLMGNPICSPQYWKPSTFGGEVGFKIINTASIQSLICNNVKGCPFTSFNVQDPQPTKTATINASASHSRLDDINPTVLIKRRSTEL
Experiment: Cyclooxygenase-2 inhibition in aspirin-treated, LPS-induced mouse peritoneal macrophages (PGE2 ELISA)
Type: cell-based
Settings: 30 nM
Outcome: Condition met for Inhibitory effects of cyclooxygenase (COX): COX-2 of at least 40 % inhibition; Condition not met for anything lower.

Ask: Evaluate COc1ccc(-c2ccc(S(C)(=O)=O)cc2)cc1OC [Example 1] : Inhibitory effects of cyclooxygenase (COX): COX-2 at minimum 40 % inhibition?
Result: Condition met

Ask: Then CCCCOc1cc(-c2ccc(S(C)(=O)=O)cc2)ccc1OC(C)C [Example 9] ?
Result: Condition met

Ask: Try the compound CCOc1ccc(-c2ccc(S(C)(=O)=O)cc2)cc1OCC [Example 2, 4′-methanesulfonyl-3,4-diethoxy-biphenyl]
Result: Condition met

Ask: Moving on to the next compound: CS(=O)(=O)c1ccc(-c2ccc(OC3CC3)c(OC3CC3)c2)cc1 [Example 5]
Result: Condition not met

Ask: What do you have for CS(=O)(=O)c1ccc(-c2ccc(OC3CCCC3)c(OC3CCCC3)c2)cc1 [Example 8] ?
Result: Condition not met

Ask: Entry to check: CS(=O)(=O)c1ccc(-c2ccc(OCc3ccccc3)c(OCc3ccccc3)c2)cc1 [Example 7]
Result: Condition met

Ask: Let us now turn to CCCOc1ccc(-c2ccc(S(C)(=O)=O)cc2)cc1OCCC [Example 3]
Result: Condition not met
